Assay: Passive artificial membrane permeability (PAMPA)
Settings: PAMPA; replicate R3; TIC of top well sample relative to sample at theoretical equilibrium
Outcome Measure: Permeability% R3 (%)

{"Compound": "CC(=O)CC(c1ccccc1)c1c(O)c2ccccc2oc1=O (centres unmarked) [Warfarin, warfarin, reference compound]", "Measured Value": 55.67}
{"Compound": "CC(C)[C@@H]1NC(=O)[C@@H](NC(=O)c2ccc(Cl)s2)CNC(=O)CCSCc2cccc(n2)CSCCNC1=O", "Measured Value": 4.56}
{"Compound": "CN1CCC(=O)NCCSCCS(=O)(=O)CCSC[C@H](NC(=O)c2ccc(Cl)s2)C(=O)N[C@@H](Cc2ccccc2)C1=O", "Measured Value": 1.01}
{"Compound": "O=C1C[C@H]2CCCN2C(=O)[C@H](Cc2ccccn2)NC(=O)[C@@H](NC(=O)c2ccc(Cl)s2)CSCCS(=O)(=O)CCSCCN1", "Measured Value": 0.38}
{"Compound": "O=C1CCSC/C=C/CSCCNC(=O)[C@H](CNC(=O)c2ccc(Cl)s2)NC(=O)[C@H](Cc2ccccn2)N1", "Measured Value": 23.67}
{"Compound": "O=C1CCSCc2ccc(cc2)CSCCNC(=O)[C@H](CNC(=O)c2ccc(Cl)s2)NC(=O)[C@H](Cc2ccccn2)N1", "Measured Value": 21.96}
{"Compound": "O=C1NCCSCc2cccc(n2)CSC[C@H](NC(=O)c2ccc(Cl)s2)C(=O)N[C@@H](CO)C(=O)NCc2ccc1cc2", "Measured Value": 0.57}
{"Compound": "C[C@@H]1NC(=O)[C@@H](NC(=O)c2ccc(Cl)s2)CSCc2cccc(n2)CSCCNC(=O)[C@H]2CCCN(C2)C1=O", "Measured Value": 26.42}
{"Compound": "O=C1NCCSCc2cccc(n2)CSC[C@H](NC(=O)c2ccc(Cl)s2)C(=O)N[C@@H](CO)C(=O)NCc2cccc1c2", "Measured Value": 2.35}
{"Compound": "O=C1CCSCc2cccc(n2)CSCCNC(=O)[C@H](CO)NC(=O)[C@@H](NC(=O)c2ccc(Cl)s2)CN1", "Measured Value": 0.95}
{"Compound": "O=C(N[C@H]1CSCc2cccc(n2)CSCCNC(=O)[C@H](Cc2ccccn2)NC(=O)C2(CCCC2)NC1=O)c1ccc(Cl)s1", "Measured Value": 31.19}
{"Compound": "O=C(N[C@H]1CSCc2cccc(n2)CSCCNC(=O)[C@H](Cc2c[nH]cn2)NC(=O)C2(CCCC2)NC1=O)c1ccc(Cl)s1", "Measured Value": 0.18}
{"Compound": "O=C1NCCSCc2cccc(n2)CSCCC(=O)N2CCC[C@H]2C(=O)N2CCN(C(=O)c3ccc(Cl)s3)CC12 (some centres unmarked)", "Measured Value": 59.76}
{"Compound": "NC(=O)NCCC[C@@H]1NC(=O)[C@@H](NC(=O)c2ccc(Cl)s2)CNC(=O)CCSCc2cccc(n2)CSCCNC1=O", "Measured Value": 1.03}

====

Experiment: Metabolic stability in rat liver microsomes (RLMs)
Conditions: rat, microsomes, pH 7.4, Half Life Mean, rat liver microsomes, mean of R1-R3

{"Compound": "C[C@]12CC[C@H]3[C@@H](CCC4=CC(=O)CC[C@@]43C)[C@@H]1CC[C@@H]2O [Testosterone, reference compound]", "half-life at 10 μM / min": 2.23}

====

Experiment: Passive artificial membrane permeability (PAMPA)
Details: 50 μM, 12–18 h; acceptor concentration relative to equilibrium
Outcome Measure: PAMPA permeability: % permeability

{"Compound": "NC(=O)NCCC[C@@H]1NC(=O)[C@@H](NC(=O)c2ccc(Cl)s2)CNC(=O)CCSCc2cccc(n2)CSCCNC1=O [compound 20]", "Measured Value": "0.99 ± 0.28%"}
{"Compound": "O=C1C[C@H]2CCCN2C(=O)[C@H](Cc2ccccc2)NC(=O)[C@@H](NC(=O)c2ccc(Cl)s2)CSCc2cccc(n2)CSCCN1 [compound 31]", "Measured Value": "47 ± 3%"}
{"Compound": "CC(=O)CC(c1ccccc1)c1c(O)c2ccccc2oc1=O (centres unmarked) [Warfarin, warfarin, reference compound]", "Measured Value": "50 ± 5%"}
{"Compound": "O=C1C[C@H]2CCCN2C(=O)[C@H](Cc2ccccc2)NC(=O)[C@@H](NC(=O)c2ccc(Cl)s2)CCCSC/C=C/CSCCN1 [compound 36]", "Measured Value": "26 ± 9%"}
{"Compound": "O=C1C[C@H]2CCCN2C(=O)[C@H](Cc2ccccc2)NC(=O)[C@@H](NC(=O)c2ccc(Cl)s2)CCC=CCCCN1 [compound 41]", "Measured Value": "64 ± 11%"}
{"Compound": "O=C1C[C@H]2CCCN2C(=O)[C@H](Cc2ccccc2)NC(=O)[C@@H](NC(=O)c2ccc(Cl)s2)CC=CCCN1 [compound 38]", "Measured Value": "32 ± 6%"}
{"Compound": "O=C1C[C@H]2CCCN2C(=O)[C@H](Cc2ccccc2)NC(=O)[C@@H](NC(=O)c2ccc(Cl)s2)CSCCS(=O)(=O)CCSCCN1 [peptide 11]", "Measured Value": "1.23 ± 0.72%"}
{"Compound": "O=C1CC2CCN(CC2)C(=O)[C@H](Cc2ccccc2)NC(=O)[C@@H](NC(=O)c2ccc(Cl)s2)CSCCS(=O)(=O)CCSCCN1 [compound 13]", "Measured Value": "2.0 ± 1.7%"}
{"Compound": "O=C1CSCCC[C@H](NC(=O)c2ccc(Cl)s2)C(=O)N[C@@H](Cc2ccccc2)C(=O)N2CCC[C@@H]2CC(=O)NCCSC1 [compound 37]", "Measured Value": "31 ± 10%"}
{"Compound": "O=C1NCCSCc2cccc(n2)CSC[C@H](NC(=O)c2ccc(Cl)s2)C(=O)N[C@@H](CO)C(=O)NCc2ccc1cc2 [compound 25]", "Measured Value": "0.62 ± 0.14%"}
{"Compound": "CN1CCC(=O)NCCSCCS(=O)(=O)CCSC[C@H](NC(=O)c2ccc(Cl)s2)C(=O)N[C@@H](Cc2ccccc2)C1=O [compound 14]", "Measured Value": "1.27 ± 0.67%"}
{"Compound": "C[C@@H]1NC(=O)[C@@H](NC(=O)c2ccc(Cl)s2)CNC(=O)CCSCc2cccc(n2)CSCCNC1=O [compound 18]", "Measured Value": "2.73 ± 1.02%"}
{"Compound": "O=C1CCSCc2ccc(cc2)CSCCNC(=O)[C@H](CNC(=O)c2ccc(Cl)s2)NC(=O)[C@H](Cc2ccccn2)N1 [compound 21]", "Measured Value": "17 ± 5%"}
{"Compound": "O=C1C[C@H]2CCCN2C(=O)[C@H](Cc2ccccc2)NC(=O)[C@@H](NC(=O)c2ccc(Cl)cc2F)CCC=CCCCCN1 [compound 45]", "Measured Value": "66 ± 14%"}
{"Compound": "O=C1C[C@H]2CCCN2C(=O)[C@H](Cc2ccccc2)NC(=O)[C@@H](NC(=O)c2ccc(Cl)s2)CCCC=CCCCN1 [compound 42]", "Measured Value": "70 ± 22%"}
{"Compound": "O=C1C[C@H]2CCCN2C(=O)[C@H](Cc2ccccc2)NC(=O)[C@@H](NC(=O)c2ccc(Cl)s2)CCCSCc2cccc(n2)CSCCN1 [compound 35]", "Measured Value": "21 ± 8%"}
{"Compound": "O=C1C[C@H]2CCCN2C(=O)[C@H](Cc2ccccc2)NC(=O)[C@@H](NC(=O)c2ccc(Cl)s2)CSC/C=C/CSCCN1 [peptide 32]", "Measured Value": "47 ± 12%"}
{"Compound": "O=C(N[C@H]1CSCc2cccc(n2)CSCCNC(=O)[C@H](Cc2ccccn2)NC(=O)C2(CCCC2)NC1=O)c1ccc(Cl)s1 [compound 28]", "Measured Value": "30 ± 7%"}
{"Compound": "O=C1CCSCc2cccc(n2)CSCCNC(=O)C2CN(C(=O)c3ccc(Cl)s3)CCN2C(=O)[C@H](CO)N1 (some centres unmarked) [compound 24]", "Measured Value": "2.0 ± 1.7%"}
{"Compound": "O=C1C[C@H]2CCCN2C(=O)[C@H](Cc2ccccc2)NC(=O)[C@@H](NC(=O)c2ccc(Cl)cc2)CCC=CCCCCN1 (mixture of isomers) [peptide 46]", "Measured Value": "55 ± 8%"}
{"Compound": "CC(C)NCC(O)COc1cccc2ccccc12 (centres unmarked) [Propranolol, reference compound]", "Measured Value": "71 ± 9%"}
{"Compound": "CC(C)[C@@H]1NC(=O)[C@@H](NC(=O)c2ccc(Cl)s2)CNC(=O)CCSCc2cccc(n2)CSCCNC1=O [compound 19]", "Measured Value": "5.7 ± 1.3%"}
{"Compound": "C[C@@H]1NC(=O)[C@@H](NC(=O)c2ccc(Cl)s2)CSCc2cccc(n2)CSCCNC(=O)c2ccc(cc2)CNC1=O [compound 26]", "Measured Value": "4.3 ± 1.6%"}
{"Compound": "O=C1CC2CCN(CC2)C(=O)[C@H](Cc2ccccc2)NC(=O)[C@@H](NC(=O)c2ccc(Cl)s2)CSCc2cccc(n2)CSCCN1 [compound 15]", "Measured Value": "20 ± 10%"}
{"Compound": "O=C1C[C@H]2CCCN2C(=O)[C@H](Cc2ccccc2)NC(=O)[C@@H](NC(=O)c2ccc(Cl)s2)CC=CCCCN1 [compound 40]", "Measured Value": "42 ± 11%"}
{"Compound": "O=C1C[C@H]2CCCN2C(=O)[C@H](Cc2ccccc2)NC(=O)[C@@H](NC(=O)c2ccc(Cl)s2)CCC=CCCCCN1 [peptide 43]", "Measured Value": "66 ± 19%"}
